Biological target: human V1a receptor (Homo sapiens)
Construct: expressed in transfected cells; host or cells: HEK293 cells, transiently transfected; membrane preparation
Assay: human V1a receptor binding studies (SPA, 3H-Vasopressin, membranes of transfected HEK293 cells)
Details: displacement of 3H-Vasopressin, HEK293 cell membranes, 1 h at room temperature; Ki by Cheng-Prussoff equation; read-out: pKi (hV1a) (converted)
Where a name gives a salt, the structure may show the parent alone.
MEASURED_PROPERTY: Ki

molecule=CC(C)(C)OC(=O)N1Cc2cc(Cl)ccc2-n2c(nnc2[C@H]2CC[C@H](Oc3cncc(Cl)c3)CC2)C1 observed="9.55 nM"
molecule=CN1Cc2cc(Cl)ccc2-n2c(nnc2[C@H]2CC[C@@H](Oc3ccccn3)CC2)C1 observed="3.31 nM"
molecule=COc1cccc(O[C@H]2CC[C@H](c3nnc4n3-c3ccc(Cl)cc3CN(C(=O)OC(C)(C)C)C4)CC2)c1 observed="4.68 nM"
molecule=CN1Cc2cc(Cl)ccc2-n2c(nnc2[C@H]2CC[C@H](Oc3cccc(C#N)c3)CC2)C1 observed="2.69 nM"
molecule=CN1Cc2cc(F)ccc2-n2c(nnc2[C@H]2CC[C@H](Oc3ccccc3)CC2)C1 observed="5.37 nM"
molecule=Cc1cccc(O[C@H]2CC[C@H](c3nnc4n3-c3ccc(Cl)cc3CN(C(=O)OC(C)(C)C)C4)CC2)c1 observed="4.9 nM"
molecule=CC(C)(C)OC(=O)N1Cc2cc(Cl)ccc2-n2c(nnc2[C@H]2CC[C@@H](Oc3ccccc3)CC2)C1 observed="9.33 nM"
molecule="Fc1ccc(O[C@H]2CC[C@H](c3nnc4n3-c3ccc(Cl)cc3CNC4)CC2)cc1 [Example 18, hydrochloride]" observed="9.55 nM"
molecule=CN1Cc2cc(Cl)ccc2-n2c(nnc2[C@H]2CC[C@H](Oc3ccccc3C#N)CC2)C1 observed="0.794 nM"
molecule=CN1Cc2cc(Cl)ccc2-n2c(nnc2[C@H]2CC[C@H](Oc3ccc(F)cc3)CC2)C1 observed="3.09 nM"
molecule=OCCN1Cc2cc(Cl)ccc2-n2c(nnc2[C@H]2CC[C@H](Oc3ccccc3)CC2)C1 observed="1.58 nM"
molecule=CN1Cc2cc(Cl)ccc2-n2c(nnc2[C@H]2CC[C@H](Oc3ccncn3)CC2)C1 observed="12.3 nM"
molecule=CN1Cc2cc(Cl)ccc2-n2c(nnc2[C@H]2CC[C@H](Oc3cc(F)cc(F)c3)CC2)C1 observed="3.89 nM"
molecule=CC(C)(C)OC(=O)N1Cc2cc(Cl)ccc2-n2c(nnc2[C@H]2CC[C@H](Oc3cnccn3)CC2)C1 observed="4.07 nM"
molecule="Fc1ccccc1O[C@H]1CC[C@H](c2nnc3n2-c2ccc(Cl)cc2CNC3)CC1 [Example 44, hydrochloride]" observed="3.39 nM"

----------
Molecular target: human V1a receptor (Homo sapiens, UniProt P37288)
Construct: expressed in transfected cells; host or cells: HEK293 cells, transiently transfected; membrane preparation
Sequence (P37288 whole entry): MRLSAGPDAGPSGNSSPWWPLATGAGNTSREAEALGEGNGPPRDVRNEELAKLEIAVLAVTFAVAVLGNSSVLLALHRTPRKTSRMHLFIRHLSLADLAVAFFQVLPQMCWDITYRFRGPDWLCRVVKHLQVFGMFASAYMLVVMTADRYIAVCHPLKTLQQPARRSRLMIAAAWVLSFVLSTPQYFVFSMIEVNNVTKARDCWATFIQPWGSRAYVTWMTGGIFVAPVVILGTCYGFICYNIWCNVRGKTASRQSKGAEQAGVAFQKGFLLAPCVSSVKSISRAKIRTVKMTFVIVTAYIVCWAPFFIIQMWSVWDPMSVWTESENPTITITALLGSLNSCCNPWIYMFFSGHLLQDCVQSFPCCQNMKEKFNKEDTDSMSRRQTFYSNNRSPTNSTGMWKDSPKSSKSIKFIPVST
Test: human V1a receptor binding studies (SPA, 3H-Vasopressin, membranes of transfected HEK293 cells)
Conditions: displacement of 3H-Vasopressin, HEK293 cell membranes, 1 h at room temperature; Ki by Cheng-Prussoff equation; read-out: pKi (hV1a) (converted)
MEASURED_PROPERTY: Ki (nM)

molecule="Clc1ccc2c(c1)CNCc1nnc([C@H]3CC[C@@H](Oc4ccccn4)CC3)n1-2 [Example 110]" measured_property=Ki observed=51.3
molecule="CC(C)(C)OC(=O)N1Cc2cc(Cl)ccc2-n2c(nnc2[C@H]2CC[C@H](Oc3ccc(C#N)cc3)CC2)C1 [Example 20]" measured_property=Ki observed=7.76
molecule="Cc1ccccc1O[C@H]1CC[C@H](c2nnc3n2-c2ccc(Cl)cc2CN(C)C3)CC1 [Example 51]" measured_property=Ki observed=3.72
molecule="CC(C)N1Cc2cc(Cl)ccc2-n2c(nnc2[C@H]2CC[C@H](Oc3ccccc3)CC2)C1 [Example 7]" measured_property=Ki observed=1.7
